Biological target: pAbl kinase (Seq. ID no. 1) (Homo sapiens)
Construct: His6 with TEV cleavage site ([…] leader) (N)
Sequence (P00519 with tags, fused parts or gaps): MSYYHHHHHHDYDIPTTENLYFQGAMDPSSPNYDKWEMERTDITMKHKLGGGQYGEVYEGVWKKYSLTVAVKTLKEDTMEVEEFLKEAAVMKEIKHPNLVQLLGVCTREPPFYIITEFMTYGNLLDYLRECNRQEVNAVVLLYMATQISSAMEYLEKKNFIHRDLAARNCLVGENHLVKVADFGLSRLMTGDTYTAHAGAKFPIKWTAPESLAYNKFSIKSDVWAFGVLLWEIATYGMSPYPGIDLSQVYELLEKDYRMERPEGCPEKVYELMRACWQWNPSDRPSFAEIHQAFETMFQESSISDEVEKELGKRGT
Test: pAbl kinase spectrophotometric coupled kinase assay
Conditions: phosphorylated-Abl kinase; 2 h preincubation, ATP 500 μM; read-out: p-Abl IC50
pIC50: −log10 of the molar value.
property-measured: pIC50

{"compound": "CNC(=O)c1cc(Oc2ccc(NC(=O)Nc3cc(C(C)(C)C)nn3-c3ccc4[nH]ncc4c3)c(F)c2)ccn1 [Example 4]", "property-measured": "pIC50", "numeric-value": 7.70}
{"compound": "CNC(=O)c1cc(Oc2ccc(NC(=O)Nc3cc(C(C)(C)C)nn3-c3ccc4ncccc4c3)cc2C)ccn1 [Example 5]", "property-measured": "pIC50", "numeric-value": 8.22}
{"compound": "CC(C)c1cc(NC(=O)Nc2ccc(Oc3ccnc(C(N)=O)c3)cc2F)n(-c2ccc3ncccc3c2)n1 [Example 15]", "property-measured": "pIC50", "numeric-value": 7.46}
